Target: DN-III quality control recombinant protein (produced by Fapon Biotech InC.) (dengue virus)
Test: BLI, AMC sensor, antibody captured
Give measured pKd for each item. Keep answers brief.
Field pKd (float): negative decimal logarithm of the concentration in molar.

Input line: State, in one line, measured pKd of Mutation 1-4 (antibody, V domains shown) VH: EVQLQQSGTELVRPGALVKLSCKASGFNIKDYYIHWVKQRPRQGLEWIGWIDPENGKTLYDPKFQDKASITSDTSTNTAYLQLRSLTSEDTAVYYCVSAYFRFVYWGQGTLVTVSA VL: QIVLTQSPAIMSAFPGERVTMTCSASSSVRYMYWHQQKPGSSPRLLIYDTSNLASGVPVRFSGSGSGTSYSLTISRDEAMDAATYYCQQWSSYPRTFGGGTKLEIKR
Output line: 9.54

Input line: State, in one line, measured pKd of Mutation 1-24 (antibody, V domains shown) VH: EVQLQQSGTELVRPGALVKLSCKASGFNIKDYYVHWVKQRPRQGLEWIGWIDPENGKTLYDPKFQDKASITSDTSTNTAYLQLRSLTSEDTAVYYCVTAYVRFVYWGQGTLVTVSA VL: QIVLTQSPAIMSAFPGERVTMTCSASTSVRYMYWHQQKPGSSPRLLIYDTSNIASGVPVRFSGSGSGTSYSLTISRDEAMDAATYYCQQWSSYPRTFGGGTKLEIKR
Output line: 9.28
